Assay: modulators of CIT2-GFP expression in yeast, confirmation, S. cerevisiae, GFP fusion, cherry picks, mother/daughter gates (AID 2274)
Details: S. cerevisiae CIT2-GFP strain, flow cytometry, 3 h; measured here: mother cell gate; at 10 µM; stronger effect = higher value
quantityKind: GFP response, % of DMSO (%)
Give bare numbers, in %.

Some entries whose results are on file:
Cc1ccc(C(C(=O)NC2CCCCC2)N(CCCN2CCOCC2)C(=O)c2snc(C(N)=O)c2N)cc1 (stereo unspecified)	103
Cc1cccc(Sc2ccc([N+](=O)[O-])cc2[N+](=O)[O-])n1	99.8
O=C(COc1ccc(OCc2ccccc2)cc1)NN=C1CCCC1	99.3

// batch mode: one GFP response, % of DMSO value per listed entry
1. O=C(O)c1ccc2ccc3ccccc3c2c1
2. O=C(c1ccc(OCC2CCCO2)cc1)N1CCN(c2ccccc2)CC1 (stereo unspecified)
3. CCCCN(CC)S(=O)(=O)c1ccc(C(=O)Nc2nnc(COC)o2)cc1
4. CCCn1c(=O)c(C(=O)Nc2ccccc2C(=O)OCC)c(O)c2ccccc21
5. O=C1c2ccccc2C(=O)c2c([N+](=O)[O-])ccc(O)c21
6. Cc1cccc(Nc2nc(-c3ccccn3)cs2)n1

Data returned:
1: 121; 2: 100; 3: 101; 4: 100; 5: 82.8; 6: 83.7

Hi there! I need GFP response, % of DMSO for each item below, if you can.
1. CC1CCN(S(=O)(=O)c2cccc(C(=O)Nc3nccs3)c2)CC1
2. Cc1nnc(NC(=O)c2ccc(S(=O)(=O)N(C)Cc3ccccc3)cc2)o1
3. Cc1ccc(CC2CC(=O)N(Cc3ccco3)C2=O)cc1 (stereo unspecified)
4. CN1CCN(C(=O)CC2C(=O)NCCN2Cc2ccc(-c3ccccc3)cc2)CC1 (stereo unspecified)
5. Cc1ccc(N2C(=O)C(Cl)=C(NCc3ccccc3)C2=O)c(C)c1
6. COc1ccc(/C=N/c2c(-c3ccco3)nc3ccccn23)cc1OC

Data returned:
[105, 102, 109, 99.1, 94.4, 100]

// batch mode: one GFP response, % of DMSO value per listed entry
1. CCCc1[nH]nc2c1C(c1cccc(OC(=O)c3ccco3)c1)C(C#N)=C(N)O2 (stereo unspecified)
2. Cn1ncc2c(O/N=C(\N)c3ccc(C(C)(C)C)cc3)ncnc21
3. O=C(OCCOc1ccccc1)c1n[nH]c2ccccc12
4. O=[N+]([O-])c1cc(Cl)ccc1Sc1ccccn1

Data returned:
104
155
100
93.2

Answer for every listed entry: what is its GFP response, % of DMSO? The entries follow.
1. CCCCC(=O)NNC(=S)NC(=O)c1ccc(C)cc1
2. CCC(=O)N/C(N)=N/c1nc2ccccc2o1
3. CCC(C(=O)O)n1nc(-c2ccccc2)c2cc(Cl)ccc21 (stereo unspecified)
4. CC(=O)N(C1=C(Cl)C(=O)c2ccccc2C1=O)C1CCCCC1
5. CCOC(=O)c1ccc2nc(Nc3nc4ccc(F)cc4s3)sc2c1
6. C=CCn1c(=O)c(C(=O)Nc2ccccc2O)c(O)c2ccccc21
7. CSc1nc2ccc(S(=O)(=O)N3CCCC3)cc2s1

Data returned:
110
99.7
102
54.7
103
102
80.5

----------
Give measured inhibition for each item. Keep answers brief.
Molecular target: AP-2 complex subunit beta (Homo sapiens) (UniProt P63010)
Sequence (P63010 whole entry, looked up, one chain of several): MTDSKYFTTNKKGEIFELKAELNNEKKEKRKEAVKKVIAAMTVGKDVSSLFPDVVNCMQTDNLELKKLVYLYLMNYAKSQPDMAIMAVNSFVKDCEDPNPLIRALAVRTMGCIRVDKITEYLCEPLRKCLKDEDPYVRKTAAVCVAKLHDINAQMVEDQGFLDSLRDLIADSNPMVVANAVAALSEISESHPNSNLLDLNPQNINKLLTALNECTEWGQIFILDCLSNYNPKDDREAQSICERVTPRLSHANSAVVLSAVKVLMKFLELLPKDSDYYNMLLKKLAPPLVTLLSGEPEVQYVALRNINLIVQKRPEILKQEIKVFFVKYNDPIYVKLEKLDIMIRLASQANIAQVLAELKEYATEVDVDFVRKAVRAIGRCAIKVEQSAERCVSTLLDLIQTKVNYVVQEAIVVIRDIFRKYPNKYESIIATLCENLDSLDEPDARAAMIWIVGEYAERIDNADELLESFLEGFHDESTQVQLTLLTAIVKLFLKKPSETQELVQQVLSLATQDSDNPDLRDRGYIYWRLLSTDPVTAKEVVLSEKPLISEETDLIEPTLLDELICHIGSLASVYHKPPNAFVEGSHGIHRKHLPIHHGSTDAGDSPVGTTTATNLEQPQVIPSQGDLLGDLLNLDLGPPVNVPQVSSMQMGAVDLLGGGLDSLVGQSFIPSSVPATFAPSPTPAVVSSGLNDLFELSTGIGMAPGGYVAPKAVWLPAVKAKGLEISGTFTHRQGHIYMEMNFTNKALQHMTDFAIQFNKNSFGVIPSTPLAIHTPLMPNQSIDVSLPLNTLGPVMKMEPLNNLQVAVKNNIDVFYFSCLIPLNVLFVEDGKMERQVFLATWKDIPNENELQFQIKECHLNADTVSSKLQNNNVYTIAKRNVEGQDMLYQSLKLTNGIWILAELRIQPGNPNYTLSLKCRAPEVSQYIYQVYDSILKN
Experiment: inhibitors of arrestin peptide binding to AP2, pilot screen, biochemical, validation set, GST-AP2 beads, flow cytometry (AID 504541);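 further: AP2 carries R879A mutation and is captured from E. coli lysate; bead-bound FITC arrestin peptide fluorescence measuring arrestin peptide binding to AP2; 0% = DMSO wells and 100% = excess unlabeled arrestin peptide control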
Details: FITC arrestin peptide, at 10 µM, stronger effect = higher value, AP2 beta2 appendage fragment, R879A mutant
Numbers only, in %.

Provide the reported inhibition of each entry below, same order.
1. COc1ccccc1-c1ccc(/C=C2/C=C(CC(C)C)OC2=O)o1
2. C[C@H](NC(=O)Nc1ccccc1F)C(=O)O
3. COc1cc2c(cc1OC)-c1cc(OCc3ccccc3Cl)nc(=O)n1CC2
4. CNc1nc(N(C)C)nc(N(C)C)n1
5. C[C@]12CC[C@H]3C(=CCc4cc(O)ccc43)[C@@H]1CCC2=O

Data returned:
[2.34, -4.89, 4.7, 14.9, 2.28]

Quick one: give me inhibition for each item below, same order please.
1. COc1ccc(/C=C2\CCn3c2nc2cc(C(=O)O)ccc2c3=O)cc1OC
2. Nc1ccc(N)c(C(=O)O)c1
3. CC[N+](C)(C)Cc1ccccc1Br
4. CCN(CC)C(=S)SSC(=S)N(CC)CC

Data returned:
[-3.78, 92.2, -11.2, 3.89]

----------
Experiment: modulators of CIT2-GFP expression in yeast, confirmation, S. cerevisiae, GFP fusion, cherry picks, mother/daughter gates (AID 2274)
Details: S. cerevisiae CIT2-GFP strain, flow cytometry, 3 h; measured here: mother cell gate; at 10 µM; stronger effect = higher value
quantityKind: GFP response, % of DMSO (%)
Answers are plain numbers, in %.

In the examples that follow, each entry is paired with its recorded GFP response, % of DMSO.
COc1ccc(OC)c(S(=O)(=O)ON2C(=O)c3ccccc3C2=O)c1	87.5
COc1ccccc1CNc1nc(S(=O)(=O)c2ccccc2)c(Cl)s1	97.1
Cc1ccn2c(NC3CCCCC3)c(C)nc2c1	96.8

For every record below, what is its GFP response, % of DMSO?
1. Cc1c(NC(=O)Nc2ccc3c(c2)OCO3)c(=O)n(-c2ccccc2)n1C
2. COc1ccc(C2=CC(=O)N(Nc3ccccc3)C2=O)cc1

Data returned:
1: 95.6; 2: 90.2

Would you mind giving GFP response, % of DMSO for every molecule in the list below?
1. COc1ccc(N2CCN(C(=O)C3CCCN(S(=O)(=O)c4ccc(C)cc4)C3)CC2)cc1 (centres undefined)
2. Cc1ccc(NC(=O)CCCSc2nc3ccccc3[nH]2)cc1
3. COc1ccc(NC(=O)COC(=O)c2ccco2)c([N+](=O)[O-])c1
4. Cc1ccc(N2CCN(C(=O)c3ccccc3Br)CC2)c(C)c1
5. O=C(Nc1cc(Sc2ccccn2)cc([N+](=O)[O-])c1)c1ccc(Cl)cc1

Data returned:
1. 105
2. 114
3. 98
4. 96.1
5. 99.7

Would you mind listing GFP response, % of DMSO for each of the following molecules?
1. CC1=CC(=O)C(C(C)C)=C/C1=N/OS(=O)(=O)c1ccccc1
2. CCOC(=O)CNc1c(-c2ccc(O)cc2)nc2ccc(Cl)cn12

Data returned:
83.8
95.6

# return GFP response, % of DMSO for each item in the list
1. Cc1cccc(Cn2cc(/C=C/[N+](=O)[O-])c3ccccc32)c1
2. O=C(O)C1CCN(S(=O)(=O)c2ccc(Oc3ccccc3)cc2)CC1
3. CCCOc1ccc(C(=O)NNC(=S)NC(=O)c2ccco2)cc1
4. O=C1CC(SCCO)C(=O)N1c1ccc(Oc2ccccc2)cc1 (centres undefined)
5. CCOC(=O)CS(=O)(=O)c1nc(-c2ccc(F)cc2)cc(C(F)(F)F)n1
6. Cc1cccn2c(=O)c(/C=C(\C#N)C(=O)NCc3ccco3)c(N3CCCCCC3)nc12
7. O=C(c1cc(-c2cccc(Cl)c2)on1)N1CCc2ccccc2C1
8. CCN1/C(=C/c2ccc3cc(C)ccc3[n+]2CC)Sc2ccc3sccc3c21

Data returned:
93.2
98
121
106
106
86.9
96.8
133

Report GFP response, % of DMSO for each item below.
1. CCCCCCNC(=O)c1c(O)c2cccc3c2n(c1=O)CCC3
2. COc1cc(SSc2cc(OC)cc([N+](=O)[O-])c2N)c(N)c([N+](=O)[O-])c1
3. O=C(Nc1c2c(nn1-c1ccccc1)CS(=O)C2)c1ccco1 (centres undefined)
4. O=C(Nc1cccc(O)c1)c1ccccc1
5. CCc1noc(C)c1C(=O)Nc1nc2ccc(OC)cc2s1

Data returned:
96.1
143
96
97.3
90.4

Return reported GFP response, % of DMSO values for all items listed beneath this line.
1. COc1ccc(N2CCN(c3nc4c(C)cccn4c(=O)c3/C=C(\C#N)C(N)=O)CC2)cc1
2. Cc1ccc(-c2csc3ncn(Cc4ccc(C(=O)O)cc4)c(=O)c23)cc1C
3. COC(=O)/C(=C/c1c[nH]c2ccccc12)[N+](=O)[O-]
4. CS(=O)(=O)N1CCc2cc(C(=O)Nc3ccc(COCC(F)(F)F)cc3)ccc21
5. Cc1ccc(C2CC(c3cccs3)=NN2S(=O)(=O)c2ccc(C)cc2)cc1 (centres undefined)
6. CCOc1ccc(-c2nc(-c3ccc(OC)cc3)no2)cc1OCC
7. Cc1ccc(NC(=S)N(CCCN2CCOCC2)Cc2cccs2)c(C)c1

Data returned:
102
107
80.7
111
98.1
99.1
98

For each of the molecules below, state GFP response, % of DMSO.
1. COc1ccc(-c2nc(-c3ccccc3OC)no2)cc1OC
2. O=C(NC(c1ccccc1)C(Cl)Cl)c1ccccc1 (centres undefined)

Data returned:
1. 93.2
2. 106

Value sought for every listed molecule: GFP response, % of DMSO.
1. CCOC(=O)CSC1=NC(=O)/C(=C\c2ccc(Cl)cc2)S1
2. CS(=O)(=O)c1nc(-c2cccs2)cc(C(F)(F)F)n1
3. COCCN1C2=C(COC(C)(C)C2)C(=S)NC1c1ccccc1 (centres undefined)
4. COc1cccc2c1Oc1ncccc1N(C(=O)CCC(=O)NCc1ccccc1)C2
5. O=C(/C=C/c1ccc(-c2ccccc2[N+](=O)[O-])o1)c1ccc(Br)cc1
6. COc1ccc(OC)c(S(=O)(=O)N2Cc3ccccc3CC2C(=O)O)c1 (centres undefined)

Data returned:
1. 88.2
2. 89.5
3. 108
4. 98.1
5. 99.7
6. 103
